All values here come from BindingDB's records for doi:10.1111/cbdd.12588.

Reported IC50 for target or system Acetylcholinesterase (Electrophorus electricus), by entry.

{"columns": ["SMILES INPUT", "TARGET", "IC50 / µM"],
 "data": [
  ["O=C(COc1cc(=O)oc2ccccc12)OCc1cn(Cc2ccc(Br)cc2)nn1", "Acetylcholinesterase (Electrophorus electricus)", 87.9],
  ["O=C(COc1cc(=O)oc2ccccc12)OCc1cn(Cc2ccccc2Br)nn1", "Acetylcholinesterase (Electrophorus electricus)", 2.14],
  ["O=C(COc1cc(=O)oc2ccccc12)OCc1cn(Cc2cccc(F)c2)nn1", "Acetylcholinesterase (Electrophorus electricus)", 1.64],
  ["COc1cccc(Cn2cc(COC(=O)COc3cc(=O)oc4ccccc34)nn2)c1", "Acetylcholinesterase (Electrophorus electricus)", 7],
  ["O=C(COc1cc(=O)oc2ccccc12)OCc1cn(Cc2ccc(F)cc2)nn1", "Acetylcholinesterase (Electrophorus electricus)", 2.54],
  ["O=C(COc1cc(=O)oc2ccccc12)OCc1cn(Cc2ccc(Cl)cc2)nn1", "Acetylcholinesterase (Electrophorus electricus)", 13],
  ["O=C(COc1cc(=O)oc2ccccc12)OCc1cn(Cc2cccc(Cl)c2)nn1", "Acetylcholinesterase (Electrophorus electricus)", 0.34],
  ["COc1ccc(Cn2cc(COC(=O)COc3cc(=O)oc4ccccc34)nn2)cc1", "Acetylcholinesterase (Electrophorus electricus)", 104],
  ["O=C(COc1cc(=O)oc2ccccc12)OCc1cn(Cc2cccc(Br)c2)nn1", "Acetylcholinesterase (Electrophorus electricus)", 1.79],
  ["O=C(COc1cc(=O)oc2ccccc12)OCc1cn(Cc2ccccc2Cl)nn1", "Acetylcholinesterase (Electrophorus electricus)", 0.18],
  ["O=C(COc1cc(=O)oc2ccccc12)OCc1cn(Cc2ccc([N+](=O)[O-])cc2)nn1", "Acetylcholinesterase (Electrophorus electricus)", 137],
  ["Cc1ccc(Cn2cc(COC(=O)COc3cc(=O)oc4ccccc34)nn2)cc1", "Acetylcholinesterase (Electrophorus electricus)", 90],
  ["O=C(COc1cc(=O)oc2ccccc12)OCc1cn(Cc2ccccc2)nn1", "Acetylcholinesterase (Electrophorus electricus)", 15.8],
  ["O=C(COc1cc(=O)oc2ccccc12)OCc1cn(Cc2ccccc2F)nn1", "Acetylcholinesterase (Electrophorus electricus)", 5.7],
  ["O=C(COc1cc(=O)oc2ccccc12)OCc1cn(Cc2ccccc2[N+](=O)[O-])nn1", "Acetylcholinesterase (Electrophorus electricus)", 0.53],
  ["Cc1ccccc1Cn1cc(COC(=O)COc2cc(=O)oc3ccccc23)nn1", "Acetylcholinesterase (Electrophorus electricus)", 1.79]
]}
